# credit: patent US20170233495A1

# targetOrTestSystem: mouse proMMP9 (mouse, UniProt P41245 20-730)
# Sequence (P41245 20-730): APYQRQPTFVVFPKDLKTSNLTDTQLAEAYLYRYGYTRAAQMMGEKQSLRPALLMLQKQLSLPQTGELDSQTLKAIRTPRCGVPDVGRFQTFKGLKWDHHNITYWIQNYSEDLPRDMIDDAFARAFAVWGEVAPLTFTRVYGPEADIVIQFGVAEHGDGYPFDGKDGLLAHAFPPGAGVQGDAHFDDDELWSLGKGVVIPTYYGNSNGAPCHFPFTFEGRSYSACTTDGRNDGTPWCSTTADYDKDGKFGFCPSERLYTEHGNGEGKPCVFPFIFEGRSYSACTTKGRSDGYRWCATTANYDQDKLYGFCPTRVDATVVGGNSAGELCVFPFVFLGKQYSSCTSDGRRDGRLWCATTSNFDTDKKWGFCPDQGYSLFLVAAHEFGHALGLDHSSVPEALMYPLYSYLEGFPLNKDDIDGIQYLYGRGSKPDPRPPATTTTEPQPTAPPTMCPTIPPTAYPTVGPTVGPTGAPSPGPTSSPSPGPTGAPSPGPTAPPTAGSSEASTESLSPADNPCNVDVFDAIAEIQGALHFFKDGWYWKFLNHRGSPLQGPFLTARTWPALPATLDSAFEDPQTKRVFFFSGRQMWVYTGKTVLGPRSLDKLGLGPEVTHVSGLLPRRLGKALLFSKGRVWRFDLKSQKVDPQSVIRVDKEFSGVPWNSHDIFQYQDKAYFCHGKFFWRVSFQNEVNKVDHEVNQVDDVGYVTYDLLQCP
# procedureSummary: cell-based or functional assay
metric: IC50 (nM), MMP3/MMP9 gelatin assay
Provide the reading as a plain figure in nM.

Endpoint output: IC50 (nM), MMP3/MMP9 gelatin assay of F20-VH-GL1-V4-V9-V14/B08-VL-GL6c (antibody, human IgG4 S228P, V domains shown) VH: EVQLVESGGGLVQPGRSLRLSCAASGFTFNDYPMHWVRQAPGKGLEWVSGISSRSGSVGYAESVKGRFTISRDNAKNSLYLQMNSLRAEDTALYYCARDKIYYGSGSYDFYYYYGIDVWGQGTTVTVSS VL: QSALTQPASVSGSPGQSITISCTGTSNDVGAYNRVSWYQQHPGKAPKLMIYGVSNRPSGVSNRFSGSKSGNTASLTISGLQAEDEADFYCTSYSSSTTSYVVFGGGTKVTVL . Value?
12.7

Endpoint output: IC50 (nM), MMP3/MMP9 gelatin assay of F20-VH-GL1-V4-V9/B08-VL-GL6c (antibody, human IgG4 S228P, V domains shown, The light chain constant region is not tied to it; also called F20-VH/B08-VLc variant; F20-VH/B08-VLc) VH: EVQLVESGGGLVQPGRSLRLSCAASGFTFNDYPMHWVRQAPGKGLEWVSGISSRSGSVGYAESVKGRFTISRDNAKNSLYLQMNSLRAEDTALYYCARDKIYYGSGSYDFYYYYGMDVWGQGTTVTVSS VL: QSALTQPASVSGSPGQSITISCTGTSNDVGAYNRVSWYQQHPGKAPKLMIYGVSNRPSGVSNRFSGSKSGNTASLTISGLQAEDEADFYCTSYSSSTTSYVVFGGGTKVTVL . Value?
7.8
